Test system: IGF1R
reported_conditions: concentration: 1 μM, replicates: in singlicate; n = 1;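 note: KINOMEscan kinase panel screen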
result_type: %Inh

Please state, for each entry, its recorded %Inh.
1. COc1cc2nccc(Nc3cccc(Oc4ccccc4)c3)c2cc1OC.Cl
2. Cc1ccc(Oc2ccc(Nc3ncnc4cc[nH]c34)cc2C)cn1
3. Cc1nnc(-c2ccc(C)c(-c3ccc(C(=O)O)cc3)c2)o1
4. Cc1cccc(-c2cc(-c3c[nH]nc3-c3ccccn3)ccn2)c1
5. Cc1nn2c(=O)cc(N3CCOCC3)nc2n1Cc1cccc(Cl)c1Cl

Return:
["14%", "0%", "0%", "0%", "5%"]

Please state, for each entry, its recorded %Inh.
1. COc1cc2ncn(-c3cc(OCc4ccncc4Br)c(C(N)=O)s3)c2cc1OC
2. O=c1cc(N2CCOCC2)nc2n(Cc3ccc(F)c(Cl)c3)ccn12
3. CCc1nc(-c2cccc(C)c2)c(-c2ccncc2)s1
4. COc1ccc(-c2coc3ccc(-c4nnc(SCc5cccc(C#N)c5)o4)cc23)cc1
5. Cc1c(Cn2c(C)nn3c(=O)cc(N4CCO[C@H](C)C4)nc23)cccc1C(F)(F)F

Return:
1: 0%; 2: 0%; 3: 0%; 4: 0%; 5: 41%

Please state, for each entry, its recorded %Inh.
1. CCc1ccc(-c2ccc3c(c2)-c2nn(C)cc2S(=O)(=O)N3C)cc1
2. Nc1n[nH]c2ncc(-c3ccccc3)cc12

Return:
1: 0%; 2: 18%

Please state, for each entry, its recorded %Inh.
1. Cc1nnc(-c2ccc3ncn(-c4ccc(S(C)=O)cc4)c3c2)o1 (centres unmarked)
2. CCC(=O)c1c(-c2ccccc2)c2cc(Cl)ccc2c(=O)n1Cc1cc(S(C)(=O)=O)n(CC(F)F)n1
3. CCCNC(=O)Nc1ccc(Oc2ncnc3ccn(C)c23)cc1
4. CCS(=O)c1ccc(-c2coc3ccc(-c4nnc(C)o4)cc23)cc1 (centres unmarked)
5. CN1C(=O)C(Nc2ccccc2)=C(c2ccccc2)C1=O
6. Nc1nc(N)c2nc(-c3ccccc3)[nH]c2n1

Return:
0%
10%
0%
0%
0%
15%

Please state, for each entry, its recorded %Inh.
1. O=C(Nc1n[nH]c2nc(-c3ccccc3)c(Br)cc12)C1CC1
2. CCC(=O)c1c(-c2ccccc2)c2cc(Cl)ccc2c(=O)n1Cc1cc(C(=O)NC2CC2)n(C)n1

Return:
1. 1%
2. 0%

----------
Assign %Inh to each entry below.
Test system: WNK1
reported_conditions: concentration: 1 μM, replicates: in singlicate; n = 1
Numbers only, in %.

- O=C(NCCNc1ccnc(Nc2ccc(F)cc2)n1)Nc1ccc2c(c1)OCO2: 5
- OCCCNc1nccc(-c2c(-c3cccc(C(F)(F)F)c3)nn3cc(C(F)(F)F)ccc23)n1: 0
- O=C(Nc1n[nH]c2nc(-c3ccccc3)c(Br)cc12)C1CC1: 2
- CCC(=O)c1c(-c2ccccc2)c2cc(Cl)ccc2c(=O)n1Cc1cc(C(=O)NC2CC2)n(C)n1: 0

Enquiry: Identify the measured %Inh of O=C(Nc1n[nH]c2cc(-c3ccccc3F)ccc12)C1CC1 for WNK1.
Return: 0

----------
Test system: FRK
reported_conditions: concentration: 1 μM, replicates: in singlicate; n = 1
Assign %Inh to each entry below.
Numbers only, in %.

Please state, for each entry, its recorded %Inh.
1. Cc1nnc(-c2ccc3ncn(-c4ccc(S(C)=O)cc4)c3c2)o1 (centres unmarked)
2. Cc1cc(Nc2nc(-c3cccc(C)n3)nc3ccccc23)ccn1 [GW872411]
3. Cc1cccc(-c2cc(-c3c[nH]nc3-c3ccccn3)ccn2)c1 [GW679395]
4. Nc1nc(N)c2nc(-c3ccccc3)[nH]c2n1 [SKF-12778]
5. CCC(=O)c1c(-c2ccccc2)c2cc(Cl)ccc2c(=O)n1Cc1cc(S(C)(=O)=O)n(CCC(C)(C)O)n1

Return:
1. 0
2. 0
3. 15
4. 8
5. 13
